This collection of values is drawn from ChEMBL document CHEMBL3044825.

System: Bacillus subtilis
test-details: Antibacterial activity against Bacillus subtilis at 100 ug/ml by cup plate method
Type: functional
test-context: read-out: IZ
measured-parameter: zone of inhibition at 100 µg/mL (mm)
Write the value in mm as a bare number.

{"smiles-text": "COc1ccccc1NS(=O)(=O)c1ccc(NC(=O)c2cn(CCO)c3c(cc(O)c4ncccc43)c2=O)cc1", "zone of inhibition at 100 µg/mL, mm": 8}
{"smiles-text": "O=C(Nc1ccc(S(=O)(=O)Nc2ccccc2)cc1)c1cn(CCO)c2c(cc(Cl)c3ncccc32)c1=O", "zone of inhibition at 100 µg/mL, mm": 10}
{"smiles-text": "Cc1cccc(NC(=S)NC(=O)c2cn(CCO)c3c(cc(Cl)c4ncccc43)c2=O)c1", "zone of inhibition at 100 µg/mL, mm": 9}
{"smiles-text": "O=C(Nc1ccc([N+](=O)[O-])cc1)c1cn(CCO)c2c(cc(O)c3ncccc32)c1=O", "zone of inhibition at 100 µg/mL, mm": 7}
{"smiles-text": "Cc1cccc(NS(=O)(=O)c2ccc(NC(=O)c3cn(CCO)c4c(cc(Cl)c5ncccc54)c3=O)cc2)c1", "zone of inhibition at 100 µg/mL, mm": 6}
{"smiles-text": "O=C(Nc1ccc(S(=O)(=O)Nc2ccc([N+](=O)[O-])cc2)cc1)c1cn(CCO)c2c(cc(Cl)c3ncccc32)c1=O", "zone of inhibition at 100 µg/mL, mm": 10}
{"smiles-text": "Cc1ccc(NC(=S)NC(=O)c2cn(CCO)c3c(cc(O)c4ncccc43)c2=O)cc1", "zone of inhibition at 100 µg/mL, mm": 6}

Query block: Any idea what its zone of inhibition at 100 µg/mL is? The compound is O=C(NC(=S)Nc1ccc(O)cc1)c1cn(CCO)c2c(cc(Cl)c3ncccc32)c1=O
Result block: 11

###

Below, each entry is listed alongside its reported zone of inhibition at 100 µg/mL.
Test system: Bacillus subtilis
test-details: Antibacterial activity against Bacillus subtilis at 100 ug/ml by cup plate method
Type: functional
test-context: read-out: IZ
Write the value in mm as a bare number.

{"smiles-text": "O=C(NC(=S)Nc1ccccc1)c1cn(CCO)c2c(cc(Cl)c3ncccc32)c1=O", "zone of inhibition at 100 µg/mL [mm]": 11}
{"smiles-text": "O=C(NC(=S)Nc1ccc([N+](=O)[O-])cc1)c1cn(CCO)c2c(cc(Cl)c3ncccc32)c1=O", "zone of inhibition at 100 µg/mL [mm]": 12}
{"smiles-text": "O=C(Nc1ccc(Cl)cc1)c1cn(CCO)c2c(cc(O)c3ncccc32)c1=O", "zone of inhibition at 100 µg/mL [mm]": 10}
{"smiles-text": "Cc1ccc(NC(=O)c2cn(CCO)c3c(cc(Cl)c4ncccc43)c2=O)cc1", "zone of inhibition at 100 µg/mL [mm]": 7}
{"smiles-text": "O=C(Nc1ccc(S(=O)(=O)Nc2ccc(Cl)cc2)cc1)c1cn(CCO)c2c(cc(O)c3ncccc32)c1=O", "zone of inhibition at 100 µg/mL [mm]": 6}
{"smiles-text": "O=C(Nc1ccc(Cl)cc1)c1cn(CCO)c2c(cc(Cl)c3ncccc32)c1=O", "zone of inhibition at 100 µg/mL [mm]": 7}
{"smiles-text": "Cc1cccc(NC(=O)c2cn(CCO)c3c(cc(O)c4ncccc43)c2=O)c1", "zone of inhibition at 100 µg/mL [mm]": 6}

Please examine the following record next.
Query block: Any idea what its zone of inhibition at 100 µg/mL is? The compound is O=C(Nc1ccccc1)c1cn(CCO)c2c(cc(O)c3ncccc32)c1=O
Result block: 6
